Test system: human model (NT2) neurons
PROCEDURE TEXT: Neuroplastogenicity (neurite outgrowth) assay in NT2 neurons
Type: cell-based
Parameters: key: a positive (+) designation indicating strong evidence of enhanced neurite outgrowth in drug-treated NT2 cells compared to vehicle-treated cells; a negative (−) designation indicating weak or no evidence of enhanced neurite outgrowth in drug-treated NT2 cells compared to vehicle-treated cells
APPLIED CONDITIONS: 1 or 10 μM, 48 h, visual inspection vs vehicle (0.1% DMSO)
READOUT LABEL: Evidence of neurite outgrowth: Yes (+) or No (−)

# COMPOUND, SYSTEM, REPORTED MEASUREMENT
data = [
    ("CN(C)CCc1c[nH]c2cc(F)c(N3CCN(C)CC3)cc12 [Compound (XXV)]", "human model (NT2) neurons", "−"),
    ("CN(C)CCc1c[nH]c2ccc(N3CCC3)cc12 [Compound (VI)]", "human model (NT2) neurons", "+"),
    ("CN(C)CCc1c[nH]c2cc(F)cc(N3CCOCC3)c12 [Compound (XV)]", "human model (NT2) neurons", "+"),
    ("COc1ccc2[nH]cc(CCN(C)C)c2c1 [Compound 5-MeO-DMT, 5-methoxy-dimethyltryptamine, reference compound]", "human model (NT2) neurons", "+"),
    ("CN(C)CCc1c[nH]c2cc(N3CCOCC3)c(F)cc12 [Compound (XI)]", "human model (NT2) neurons", "−"),
]

Input CN(C)CCc1c[nH]c2cc(N3CCCC3)ccc12 [Compound (X)] . Output Evidence of neurite outgrowth: Yes (+) or No (−): +

Input CN(CCc1c[nH]c2cc(N3CCOCC3)c(F)cc12)Cc1ccccc1 [Compound (XX)] . Output Evidence of neurite outgrowth: Yes (+) or No (−): +

Input CN(C)CCc1c[nH]c2cc(N3CCCC3)c(F)cc12 [Compound (XIV)] . Output Evidence of neurite outgrowth: Yes (+) or No (−): +

Input CN(C)CCc1c[nH]c2cc(F)cc(N3CCCC3)c12 [Compound (XIII)] . Output Evidence of neurite outgrowth: Yes (+) or No (−): +

---

PROCEDURE TEXT: Mouse plasma pharmacokinetics (PK) survey
Assay type: in vivo
APPLIED CONDITIONS: male, C57BL6, mouse, plasma, ip, 4 mg/kg, male C57BL6 mice, plasma, 4 mg/kg i.p.; read-out: AUCt0-tlast
The reader will find reported AUC values listed item by item below.
# value in µg·h/mL; strip the unit string

Solved cases (3 shown):
# STRUCTURE, READOUT LABEL, REPORTED MEASUREMENT
rows = [
    ("CN(C)CCc1c[nH]c2cc(F)cc(N3CCOCC3)c12", "AUC", 0.241),
    ("CN(C)CCc1c[nH]c2cc(N3CCC3)ccc12", "AUC", 0.0397),
    ("CC(C)N(C)CCc1c[nH]c2cc(N3CCOCC3)c(F)cc12", "AUC", 0.0242),
]

Then this compound:
Input "CN(C)CCc1c[nH]c2cc(N3CCCC3)cc(F)c12" . Output AUC: 0.0196

---

PROCEDURE TEXT: Mouse plasma pharmacokinetics (PK) survey
Format: in vivo
APPLIED CONDITIONS: mouse, ip; male C57BL6 mice, plasma, 10 mg/kg i.p.
The reader will find reported Cmax values listed item by item below.
# value in ng/mL; strip the unit string

Solved cases (3 shown):
# COMPOUND, OUTPUT UNIT, Cmax
records = [
    ("CN(C)CCc1c[nH]c2cc(N3CCCC3)cc(F)c12 [Compound (XVIII)]", "ng/mL", 87.5),
    ("CN(C)CCc1c[nH]c2cc(F)cc(N3CCOCC3)c12 [Compound (XV)]", "ng/mL", 459),
    ("CC(C)N(C)CCc1c[nH]c2cc(N3CCOCC3)c(F)cc12 [Compound (XVII)]", "ng/mL", 384),
]

Input CN(C)CCc1c[nH]c2cc(N3CCC3)ccc12 [Compound (XII)] . Output Cmax: 302

---

PROCEDURE TEXT: Mouse plasma pharmacokinetics (PK) survey
Assay type: in vivo
APPLIED CONDITIONS: male, C57BL6, mouse, plasma, ip, 10 mg/kg, male C57BL6 mice, plasma, 10 mg/kg i.p.; read-out: AUCt0-tlast
The reader will find reported AUC values listed item by item below.

# COMPOUND, AUC
rows = [
    ("CN(C)CCc1c[nH]c2cc(F)cc(N3CCOCC3)c12 [Compound (XV)]", "590 ng·h/mL"),
    ("CC(C)N(C)CCc1c[nH]c2cc(N3CCOCC3)c(F)cc12 [Compound (XVII)]", "164 ng·h/mL"),
    ("CN(C)CCc1c[nH]c2cc(N3CCCC3)cc(F)c12 [Compound (XVIII)]", "76.4 ng·h/mL"),
]

Then this compound:
Input CN(C)CCc1c[nH]c2cc(N3CCC3)ccc12 [Compound (XII)] . Output AUC: 145 ng·h/mL

---

SYSTEM: 5-HT2A receptor (Homo sapiens)
Construct: purchased PerkinElmer ES-313-M400UA
PROCEDURE TEXT: 5-HT2A receptor radioligand competition assay (SPA, [3H]ketanserin)
Format: binding
APPLIED CONDITIONS: 5-HT2A, Ki, 1 nM [3H]ketanserin; membranes containing 5-HT2A
READOUT LABEL: pKi
Please report pKi as the negative decimal logarithm of the molar concentration, giving only the number.

Input CN(C)CCc1c[nH]c2ccccc12 [DMT, dimethyltryptamine, reference compound] . Output pKi: 5.99

---

The reader will find reported Cmax values listed item by item below.
PROCEDURE TEXT: Mouse plasma pharmacokinetics (PK) survey
Type: in vivo
APPLIED CONDITIONS: mouse, ip; male C57BL6 mice, plasma, 4 mg/kg i.p.
# value in ng/mL; strip the unit string

Solved cases (3 shown):
# STRUCTURE, Cmax [ng/mL]
rows = [
    ("CN(C)CCc1c[nH]c2cc(N3CCC3)ccc12", 92.8),
    ("CC(C)N(C)CCc1c[nH]c2cc(N3CCOCC3)c(F)cc12", 62.1),
    ("CN(C)CCc1c[nH]c2cc(N3CCCC3)cc(F)c12", 8.8),
]

Then this molecule:
Input "CN(C)CCc1c[nH]c2cc(F)cc(N3CCOCC3)c12" . Output Cmax: 101

---

SYSTEM: 5-HT2A receptor (Homo sapiens, UniProt P28223)
Construct: purchased PerkinElmer ES-313-M400UA
Sequence (P28223 whole entry): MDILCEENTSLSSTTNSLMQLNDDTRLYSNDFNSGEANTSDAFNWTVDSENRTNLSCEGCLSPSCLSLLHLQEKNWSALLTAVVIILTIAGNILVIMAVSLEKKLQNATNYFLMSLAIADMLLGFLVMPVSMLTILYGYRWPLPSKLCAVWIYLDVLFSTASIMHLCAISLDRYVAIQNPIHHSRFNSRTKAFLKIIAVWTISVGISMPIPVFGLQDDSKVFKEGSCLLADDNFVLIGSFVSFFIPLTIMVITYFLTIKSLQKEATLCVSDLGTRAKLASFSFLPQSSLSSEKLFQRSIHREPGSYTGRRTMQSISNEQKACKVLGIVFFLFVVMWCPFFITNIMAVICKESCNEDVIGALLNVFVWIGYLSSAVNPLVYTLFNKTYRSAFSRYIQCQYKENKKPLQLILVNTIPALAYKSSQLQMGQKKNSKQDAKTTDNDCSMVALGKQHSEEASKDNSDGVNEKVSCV
PROCEDURE TEXT: 5-HT2A receptor radioligand competition assay (SPA, [3H]ketanserin)
Assay type: binding
APPLIED CONDITIONS: 1 nM [3H]ketanserin; membranes containing 5-HT2A; read-out: 5-HT2A, Ki
The reader will find reported pKi values listed item by item below.
Please report pKi as the negative decimal logarithm of the molar concentration, giving only the number.

Solved cases (3 shown):
# MOLECULE, SYSTEM, pKi
data = [
    ("CN(C)CCc1c[nH]c2cc(F)cc(N3CCCC3)c12 [Compound (XIII)]", "5-HT2A receptor (Homo sapiens, UniProt P28223)", 5.53),
    ("CN(C)CCc1c[nH]c2cc(N3CCCC3)ccc12 [Compound (X)]", "5-HT2A receptor (Homo sapiens, UniProt P28223)", 5.11),
    ("CN(C)CCc1c[nH]c2cc(F)cc(N3CCOCC3)c12 [Compound (XV)]", "5-HT2A receptor (Homo sapiens, UniProt P28223)", 6.14),
]

Then this molecule:
Input CNC(C)Cc1ccc2c(c1)OCO2 (centres unmarked) [MDMA, 3,4-methylenedioxymethamphetamine, reference compound] . Output pKi: 4.40
